Where do the numbers come from? From ChEMBL document CHEMBL1141332.

# Tested on: NCI-H23
# ASSAY REMARKS: Cytotoxicity against human NCI-H23 cells
# Format: functional
The molecules listed here are annotated with their GI50.
ATTRIBUTE MEASURED: GI50

MOLECULE | MEAS VALUE
CC(=O)C1=CC[C@H]2[C@]3(C)CC[C@H]4C(C)(C)CCC[C@]4(C(=O)O)[C@H]3CC(=O)[C@]2(C)[C@H]1C=O | 2000 nM
CC(=O)O[C@H]1C[C@H]2[C@@](C)(CC[C@H]3C(C)(C)CCC[C@@]32CO)[C@@H]2CC=C(C(C)=O)[C@H](C=O)[C@@]12C | 1410 nM
CC1OC(=O)[C@H]2[C@H]1[C@@H](O)C[C@H]1[C@]3(C)CC[C@H]4C(C)(C)CCC[C@]4(C)[C@H]3C[C@@H](O)[C@]21C (some centres undefined) | 20400 nM
CC(=O)O[C@@H]1C[C@H]2[C@]3(C)CC[C@H]4C(C)(C)CCC[C@]4(C)[C@H]3C[C@H](O)[C@]2(C)[C@@H](C=O)[C@@H]1C(C)=O | 1660 nM
